Taken from the supplement of paper PMC8253809.

Items are presented alongside their recorded growth inhibition.
Tested on: DIPGX7 (H3.3 K27M diffuse intrinsic pontine glioma line)
Experiment: growth inhibition (% activity, log2 RLU normalised to DMSO / staurosporine); higher = more growth inhibition
Details: 33 µM

# molecule, result-units, growth inhibition
measured = [
    ("CO[C@@]1(NC(=O)C(C(=O)O)c2ccc(O)cc2)C(=O)N2C(C(=O)O)=C(CSc3nnnn3C)CO[C@@H]21 (some centres not stated)", "%", -0.554),
    ("CCOC(CN1CCN(CC(C)C(=O)c2ccccc2)CC1)c1ccccc1 (configuration not stated)", "%", -1.24),
    ("CCC1=C(C)CN(C(=O)NCCc2ccc(S(=O)(=O)NC(=O)N[C@H]3CC[C@H](C)CC3)cc2)C1=O", "%", -0.131),
    ("CCC[C@@H]1C[C@@H](C(=O)N[C@@H]([C@H]2O[C@H](SC)[C@H](OP(=O)(O)O)[C@@H](O)[C@H]2O)[C@H](C)Cl)N(C)C1", "%", -1.72),
    ("CCC(=O)NCC[C@@H]1CCc2ccc3c(c21)CCO3", "%", 1.26),
    ("Cc1ccnc2c1NC(=O)c1cccnc1N2C1CC1", "%", 0.516),
    ("NCCCCCC(=O)O", "%", 2.76),
    ("N[C@H](Cc1ccccc1)C(=O)O", "%", 1.99),
    ("COc1ccc(Cl)cc1C(=O)NCCc1ccc(S(=O)(=O)NC(=O)NC2CCCCC2)cc1", "%", -0.628),
    ("Cc1cc(C(C)(C)C)cc(C)c1CC1=NCCN1", "%", -1.4),
    ("OC1(c2ccc(Cl)c(C(F)(F)F)c2)CCN(CCCC(c2ccc(F)cc2)c2ccc(F)cc2)CC1", "%", 5.28),
    ("CCOC(=O)n1ccn(C)c1=S", "%", 0.732),
    ("CC(C)OC(=O)OCOP(=O)(CO[C@H](C)Cn1cnc2c(N)ncnc21)OCOC(=O)OC(C)C", "%", 0.933),
    ("C[C@]12CC[C@@H]3c4ccc(O)cc4CC[C@H]3[C@@H]1CCC2=O", "%", 2.55),
    ("CC(=O)Oc1ccc(C(c2ccc(OC(C)=O)cc2)c2ccccn2)cc1", "%", 5.33),
    ("NC(=O)c1ncn([C@@H]2O[C@H](CO)[C@@H](O)[C@H]2O)c1N", "%", 1.73),
    ("CCc1nc(N)nc(N)c1-c1ccc(Cl)cc1", "%", 1.94),
    ("COc1ccc(CN(CCN(C)C)c2ccccn2)cc1", "%", -2.04),
    ("CC1(C)S[C@@H]2[C@H](NC(=O)[C@H](NC(=O)N3CCNC3=O)c3ccccc3)C(=O)N2[C@H]1C(=O)O", "%", -0.00643),
    ("CCOC(=O)[C@H](CCc1ccccc1)N[C@@H](C)C(=O)N1C(=O)N(C)C[C@H]1C(=O)O", "%", -0.344),
    ("CCn1cc(C(=O)O)c(=O)c2cc(F)c(N3CCNC(C)C3)c(F)c21 (configuration not stated)", "%", -0.94),
    ("COc1ccc(C2C(=O)c3ccccc3C2=O)cc1", "%", -0.141),
]

====

Test system: DIPGX9 (diffuse intrinsic pontine glioma line)
Assay: growth inhibition (% activity, log2 RLU normalised to DMSO / staurosporine); higher = more growth inhibition
Conditions: 33 µM

# compound, target-of-assay, growth inhibition [%]
rows = [
    ("CC(=O)O[C@]1(C(C)=O)CC[C@H]2[C@@H]3C=C(C)C4=CC(=O)CC[C@]4(C)[C@H]3CC[C@@]21C", "DIPGX9", 1.56),
    ("CO[C@H]1/C=C/O[C@@]2(C)Oc3c(C)c(O)c4c(O)c(c(/C=N/N5CCN(C6CCCC6)CC5)c(O)c4c3C2=O)NC(=O)/C(C)=C\\C=C\\[C@H](C)[C@H](O)[C@@H](C)[C@@H](O)[C@@H](C)[C@H](OC(C)=O)[C@@H]1C", "DIPGX9", 2.34),
    ("CCC(=O)O[C@]1(C(=O)CCl)[C@@H](C)C[C@H]2[C@@H]3C[C@H](F)C4=CC(=O)C=C[C@]4(C)[C@@]3(F)[C@@H](O)C[C@@]21C", "DIPGX9", 4.83),
    ("O[C@@H]1CO[C@H]2[C@@H]1OC[C@@H]2O", "DIPGX9", -0.699),
    ("O=C(Nc1c(Cl)cncc1Cl)c1ccc(OC(F)F)c(OCC2CC2)c1", "DIPGX9", 2.71),
    ("CCC(C)n1ncn(-c2ccc(N3CCN(c4ccc(OCC5COC(Cn6cncn6)(c6ccc(Cl)cc6Cl)O5)cc4)CC3)cc2)c1=O (centres undefined)", "DIPGX9", 1.24),
    ("COC(=O)Nc1nc2cc([S+]([O-])c3ccccc3)ccc2[nH]1 (centres undefined)", "DIPGX9", 5.87),
    ("Oc1ncnc2[nH]ncc12", "DIPGX9", -2.61),
    ("NCCc1ccc(O)c(O)c1", "DIPGX9", 0.714),
    ("CC[C@H](C)C(=O)O[C@H]1C[C@@H](C)C=C2C=C[C@H](C)[C@H](CC[C@@H]3C[C@@H](O)CC(=O)O3)[C@H]21", "DIPGX9", 5.72),
    ("Cc1noc(NS(=O)(=O)c2ccc(N)cc2)c1C", "DIPGX9", -0.0916),
    ("CN1CCC(OC(c2ccccc2)c2ccccc2)CC1", "DIPGX9", 0.713),
    ("COc1ccccc1N1CCN(CC(O)COc2cccc3ccccc23)CC1 (centres undefined)", "DIPGX9", 4.27),
    ("NS(=O)(=O)c1cc2c(cc1C(F)(F)F)NC(Cc1ccccc1)NS2(=O)=O (centres undefined)", "DIPGX9", -0.0939),
    ("CNCCc1ccccn1", "DIPGX9", 1.11),
    ("Cc1cc(NS(=O)(=O)c2ccc(N)cc2)no1", "DIPGX9", -1.67),
    ("O=C(N/N=C/c1ccc([N+](=O)[O-])o1)c1ccc(O)cc1", "DIPGX9", 5.76),
    ("C[C@]12CC[C@@H]3c4ccc(O)cc4C[C@@H](CCCCCCCCC[S+]([O-])CCCC(F)(F)C(F)(F)F)[C@H]3[C@@H]1CC[C@@H]2O (some centres undefined)", "DIPGX9", -0.923),
    ("CCOc1cc(N)c(Cl)cc1C(=O)NCC1CN(Cc2ccc(F)cc2)CCO1 (centres undefined)", "DIPGX9", 1.54),
]

====

System: DIPGX9
Experiment: growth inhibition (% activity, log2 RLU normalised to DMSO / staurosporine); higher = more growth inhibition
Conditions: 33 µM
Items are presented alongside their recorded growth inhibition.

# compound, target-of-assay, result-units, growth inhibition
records = [
    ("CC(C)(C)c1cc(C(C)(C)C)c(NC(=O)c2c[nH]c3ccccc3c2=O)cc1O", "DIPGX9", "%", 8.47),
    ("O=C([O-])[C@H](O)[C@@H](O)[C@H](O)[C@H](O)CO.[Na+]", "DIPGX9", "%", 1.18),
    ("CN1CCN(c2cc3c(cc2F)c(=O)c(C(=O)O)cn3-c2ccc(F)cc2)CC1", "DIPGX9", "%", 1.68),
    ("Cn1c(=O)c2c(ncn2CC2OCCO2)n(C)c1=O", "DIPGX9", "%", 0.338),
    ("Cc1c(N(C)C)c(=O)n(-c2ccccc2)n1C", "DIPGX9", "%", -1.42),
    ("N=C(N)N/N=C/c1c(Cl)cccc1Cl", "DIPGX9", "%", 1.59),
    ("O=C1O[C@H]([C@@H](O)CO)C(O)=C1O", "DIPGX9", "%", -1.21),
    ("CN(C)CCCN1c2ccccc2CCc2ccc(Cl)cc21", "DIPGX9", "%", 2.88),
    ("CC1=NN(c2ccccc2)C(=O)C1", "DIPGX9", "%", -0.407),
    ("O=C(CCNNC(=O)c1ccncc1)NCc1ccccc1", "DIPGX9", "%", -2.76),
    ("C[C@]12C=CC(=O)C=C1CC[C@@H]1[C@@H]2C(=O)C[C@@]2(C)[C@H]1CC[C@]2(O)C(=O)CO", "DIPGX9", "%", -2.35),
    ("CN(C)CCCOc1nn(Cc2ccccc2)c2ccccc12", "DIPGX9", "%", 5.76),
    ("O=C1C(=O)c2ccccc2C(O)=C1C1CCC(c2ccc(Cl)cc2)CC1 (configuration not stated)", "DIPGX9", "%", 2),
    ("Cc1ncc([N+](=O)[O-])n1CC(O)CCl (configuration not stated)", "DIPGX9", "%", 1.89),
    ("CCC(C)(C)c1ccc(CC(C)CN2C[C@@H](C)O[C@@H](C)C2)cc1 (some centres not stated)", "DIPGX9", "%", 0.0137),
    ("C[C@H](Cn1cnc2c(N)ncnc21)OCP(=O)(O)O", "DIPGX9", "%", -0.823),
    ("Clc1ccc(COC(Cn2ccnc2)c2ccc(Cl)cc2Cl)cc1 (configuration not stated)", "DIPGX9", "%", 4),
    ("OCC(CO)N[C@H]1C[C@](O)(CO)[C@@H](O)[C@H](O)[C@H]1O", "DIPGX9", "%", 0.186),
    ("CC(C)C(=O)Nc1ccc([N+](=O)[O-])c(C(F)(F)F)c1", "DIPGX9", "%", 2.7),
    ("CCC(CC)[C@H](NC(C)=O)[C@@H]1[C@H](O)[C@@H](C(=O)O)C[C@H]1NC(=N)N", "DIPGX9", "%", -0.84),
    ("CN(C)CCN(Cc1cccs1)c1ccccn1", "DIPGX9", "%", 0.429),
    ("Cc1ncc([N+](=O)[O-])n1CCO", "DIPGX9", "%", 0.881),
    ("CCOc1cc(CC(=O)N[C@@H](CC(C)C)c2ccccc2N2CCCCC2)ccc1C(=O)O", "DIPGX9", "%", -0.0677),
    ("CC(C(=O)O)c1ccc(-c2ccccc2)c(F)c1 (configuration not stated)", "DIPGX9", "%", 1.06),
    ("Cc1ccc(C(=O)c2ccc(CC(=O)O)n2C)cc1", "DIPGX9", "%", 0.57),
    ("O=C(O)CCNC(=O)c1ccccc1", "DIPGX9", "%", 0.575),
    ("O=C(Nc1ccccc1)OCC(CN1CCCCC1)OC(=O)Nc1ccccc1 (configuration not stated)", "DIPGX9", "%", -1.45),
    ("CC#CCn1c(N2CCC[C@@H](N)C2)nc2c1c(=O)n(Cc1nc(C)c3ccccc3n1)c(=O)n2C", "DIPGX9", "%", -0.000837),
    ("CC/C(=C(\\c1ccccc1)c1ccc(OCCN(C)C)cc1)c1ccccc1", "DIPGX9", "%", 3.63),
    ("Oc1c(Cl)cc(Cl)c2cccnc12", "DIPGX9", "%", 5.64),
    ("O=C1CC[C@@H](C(=O)N2CSC[C@H]2C(=O)O)N1", "DIPGX9", "%", 1.89),
    ("C[N+]1(C)[C@@H]2C[C@@H](OC(=O)C(O)(c3cccs3)c3cccs3)C[C@H]1[C@@H]1O[C@@H]12", "DIPGX9", "%", -2.3),
    ("CC(C)(Oc1ccc(Cl)cc1)C(=O)O", "DIPGX9", "%", -1.38),
    ("CNCC[C@@H](Oc1ccccc1C)c1ccccc1", "DIPGX9", "%", 0.537),
    ("CCCC(=O)[O-].[Na+]", "DIPGX9", "%", 0.792),
    ("CC(C)[C@H](N)C(=O)OCCOCn1cnc2c(=O)nc(N)[nH]c21", "DIPGX9", "%", 1.11),
    ("NC(=O)N1c2ccccc2C=Cc2ccccc21", "DIPGX9", "%", 1.56),
    ("CN(C)CCc1c[nH]c2ccc(Cn3cncn3)cc12", "DIPGX9", "%", 0.553),
    ("O=C(CCCN1CCN(c2ccccn2)CC1)c1ccc(F)cc1", "DIPGX9", "%", 1.29),
    ("CC1(C)S[C@@H]2[C@H](NC(=O)Cc3ccccc3)C(=O)N2[C@H]1C(=O)O", "DIPGX9", "%", 0.921),
    ("CC(=O)OCC(CCn1cnc2cnc(N)nc21)COC(C)=O", "DIPGX9", "%", -2.76),
    ("CCOC(=O)O[C@]1(C(=O)OCCl)CC[C@H]2[C@@H]3CCC4=CC(=O)C=C[C@]4(C)[C@H]3[C@@H](O)C[C@@]21C", "DIPGX9", "%", 3.44),
    ("CC(NCCc1ccc(O)cc1)C(O)c1ccc(O)cc1 (configuration not stated)", "DIPGX9", "%", 1.19),
    ("C[C@H]1NC(=O)NC1=O", "DIPGX9", "%", -0.744),
    ("CS(=O)(=O)OCCCCOS(C)(=O)=O", "DIPGX9", "%", 1.86),
    ("CCCCC(=O)N(Cc1ccc(-c2ccccc2-c2nnn[nH]2)cc1)[C@H](C(=O)O)C(C)C", "DIPGX9", "%", -0.058),
    ("NCCNCCNCCNCCN", "DIPGX9", "%", 2.04),
]
